subject_of_test: ScSla1-D3
assay_text: SPOT peptide array binding signal intensity (averaged, normalized) (arbitrary units (background-subtracted, floor 0; scale differs between SH3 domains)); higher = stronger binding of the SH3 domain to the peptide
observation_type: SPOT peptide array binding signal intensity
The reply should be a number, written without any unit.

Examples with answers:
[
  {
    "binder": "GERSRPLVISILSSA",
    "meas_value": 22
  },
  {
    "binder": "APPPPPRRATPEKKP",
    "meas_value": 3.25
  },
  {
    "binder": "GRSRLFPHSPLGRSS",
    "meas_value": 1.25
  },
  {
    "binder": "IHTRRPSSTSQYLIR",
    "meas_value": 14.5
  },
  {
    "binder": "HAPPLPPTAPPPPSL",
    "meas_value": 1.75
  },
  {
    "binder": "RPVPRRPSQPLNTLS",
    "meas_value": 18
  }
]

Prompt: Can you share its SPOT peptide array binding signal intensity? I mean this binder: `ALFRLSFFFPLDPAY`
Response: 426

Prompt: Can you share its SPOT peptide array binding signal intensity? I mean this binder: `NFLRLLIGLPSQNEL`
Response: 8.5

Prompt: Can you share its SPOT peptide array binding signal intensity? I mean this binder: `KTRLRPAFIQQLWSS`
Response: 27.5

Prompt: Can you share its SPOT peptide array binding signal intensity? I mean this binder: `VPKEPAPAPPPEPDM`
Response: 6.5
